Just for reference, ChEMBL document CHEMBL1201862 is where these values come from.

# System: DU-145
# procedureDetails: NCI tumour cell line growth inhibition, 48 h
Activity calls are given as the source filed them. No stated cut-off is given here; in the data, active = GI50 up to about 1.1 µM and inactive = higher.
propertyLabel: GI50

Cc1nc2c(c(N3CCN(C)CC3)n1)Cc1ccccc1-2: > 100 µM (inactive)
CCOC(=O)C(=CNc1ccc(S(N)(=O)=O)cc1)C(=O)OCC: > 100 µM (inactive)
CCCCCC(=O)OC[n+]1cccc(-c2c(COC(=O)NC(C)C)c(COC(=O)NC(C)C)c3n2CCC3)c1: 35.4 µM (inactive)
COC(O)C(=O)c1ccc2c(c1)CC1(C2)Cc2cc3c(cc2C1=O)CCC3 (stereo not given): 17.1 µM (inactive)
CCCOc1cc2c(cc1O)CC[C@@H]1[C@@H]2CC[C@]2(C)[C@@H](O)CC[C@@H]12: 3.27 µM (inactive)
COc1cc(N/N=C/C#N)cc(OC)c1OC: > 10 µM (inactive)
Cn1c2ccccc2c2c(-c3ccccc3)cc3c(c21)C(=O)C=CC3=O: 5.4 µM (inactive)
CCCCN1C(=O)C[C@H]2[C@@H]3CCc4cc(OCCN5CCCC5)ccc4[C@H]3CC[C@]2(C)C1=O: 13.9 µM (inactive)
CCNC12CCC(C1)C(C)(C)C2=O (stereo not given): > 100 µM (inactive)
CCCCCN(CCCCC)CC(C)(C)C(O)c1ccc(OC)c2ccccc12 (stereo not given): 12.5 µM (inactive)
